- TESTED TARGET: human full-length CD33 (CD33^FL) (UniProt P20138 18-364)
- Sequence (P20138 18-364): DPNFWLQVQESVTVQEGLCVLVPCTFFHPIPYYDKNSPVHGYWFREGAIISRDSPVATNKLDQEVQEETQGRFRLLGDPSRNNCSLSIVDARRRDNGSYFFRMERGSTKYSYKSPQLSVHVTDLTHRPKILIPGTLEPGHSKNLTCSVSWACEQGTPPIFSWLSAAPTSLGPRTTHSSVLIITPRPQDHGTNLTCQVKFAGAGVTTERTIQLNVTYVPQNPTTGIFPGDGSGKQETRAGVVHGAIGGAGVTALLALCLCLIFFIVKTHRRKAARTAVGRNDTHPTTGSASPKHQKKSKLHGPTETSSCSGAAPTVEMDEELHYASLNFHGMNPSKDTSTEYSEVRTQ
- ASSAY OVERVIEW: SPR (Carterra); hybridoma supernatant
RECORDED ENDPOINT: Kd (nM)

BINDER | RECORDED ENDPOINT | ENDPOINT UNIT | VALUE OBSERVED
1B9 antibody (human CD33^PAN antibody clone, hybridoma-derived) (antibody, V domains shown) VH: QVQLVESGGGVVQPGRSLRLSCAASGFIFSSYDIHWVRQAPGKGLEWVAVIWYDGSHNYYSDSVKGRFTISRDNSKNTLYLQMNSLRAEDTAVYYCARDYSGSYFDYWGQGTLVTVSS VL: AIQMTQSPSSLSASVGDRVTITCRASQDIRNDLGWYLQRPGKAPKLLIYAASSLQSGVPSRFSGSGSGTDFTLTISSLQPEDFATYYCLQDYSYPRTFGQGTTVEIK | Kd | nM | 77

Source listed as patent US20260265404A1.
